Data origin, for the record: patent US8513229B2

# target: CCR2 (Homo sapiens)
# Sequence (P41597 1-360 isoform P41597-2): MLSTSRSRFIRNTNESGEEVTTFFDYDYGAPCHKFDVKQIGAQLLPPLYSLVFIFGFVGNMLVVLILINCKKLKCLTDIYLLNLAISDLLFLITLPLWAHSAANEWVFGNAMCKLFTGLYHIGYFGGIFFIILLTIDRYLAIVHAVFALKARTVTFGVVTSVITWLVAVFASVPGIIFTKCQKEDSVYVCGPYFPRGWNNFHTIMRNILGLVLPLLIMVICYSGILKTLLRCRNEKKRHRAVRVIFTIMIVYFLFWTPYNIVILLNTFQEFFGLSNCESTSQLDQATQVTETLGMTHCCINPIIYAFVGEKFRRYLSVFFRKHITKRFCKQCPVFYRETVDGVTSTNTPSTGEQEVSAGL
# assay_text: MCP-1 Receptor Binding Assay in THP-1 Cells
# reported_conditions: 0.5 nM 125I labeled MCP-1, 2 hours at 30° C., read-out: Inhibition of MCP-1 Binding IC50 CCR2 Binding
pIC50: −log10 of the molar value.
Short version: pIC50 at least 7 is fulfilled, less is not fulfilled.

molecule | cat
N#CCc1ccc(C2CCC(N3CC(NC(=O)CNC(=O)c4cccc(C(F)(F)F)c4)C3)CC2)cc1 (single isomer, unassigned) [Example 21a] | fulfilled
N=C(N)Cc1ccc(C2CCC(N3CC(NC(=O)CNC(=O)c4cccc(C(F)(F)F)c4)C3)CC2)cc1 (stereo not shown) | not fulfilled
COc1ccc(C(=O)NCC(=O)NC2CN(C3CCC(c4ccccc4)CC3)C2)cc1C(F)(F)F (stereo not shown) | not fulfilled
O=C(CNC(=O)c1cccc(C(F)(F)F)c1)NC1CN(C2CCC(c3ccc(O)cc3)CC2)C1 (single isomer, unassigned) [Example 40a] | fulfilled
O=C(CNC(=O)c1cccc(C(F)(F)F)c1)NC1CN(C2CCC(c3ccc4sc(=O)[nH]c4c3)CC2)C1 (single isomer, unassigned) | not fulfilled
O=C(CNC(=O)c1cc(C(F)(F)F)ccc1F)NC1CN(C2CCC(c3ccccc3)CC2)C1 (stereo not shown) | not fulfilled
COc1ccc(C2(O)CCC(N3CC(NC(=O)CNC(=O)c4cccc(C(F)(F)F)c4)C3)CC2)cc1 (single isomer, unassigned) [Example 36a] | fulfilled
CC(C)(C)NC(=O)Nc1cc(C(=O)NCC(=O)NC2CN(C3CCC(c4ccccc4)CC3)C2)cc(C(F)(F)F)c1 (stereo not shown) | fulfilled
